Give measured IC50 for each item. Keep answers brief.
Test system: Plasmodium falciparum
ASSAY_NAME: In vitro antimalarial activity against Plasmodium falciparum W2 after 72 hrs in SYBR green fluorescence assay
Assay type: functional, organism-based
EXPERIMENTAL_PARAMETERS: W2, 72 h
Expressed in µg/mL, but write only the number.

So what does the record say about IC50 for `C[C@@H]1CC[C@H]2[C@@H](C)C(=O)O[C@@H]3O[C@@]4(C)CC[C@@H]1[C@]32OO4` ?
0.001

Value lookup for IC50; key = `C[C@H]1c2cccc(O)c2C(=O)C2=C(O)[C@]3(O)C(=O)C(C(N)=O)=C(O)[C@@H](N(C)C)[C@@H]3[C@@H](O)[C@@H]21.O`
2.41

// query IC50 value for entry C=CC1CN2CC[C@H]1C[C@H]2[C@H](O)c1ccnc2ccc(OC)cc12 (single isomer, unassigned)
0.167

# lookup: IC50 of `CC[C@H]1OC(=O)[C@H](C)[C@@H](O[C@H]2C[C@@](C)(OC)[C@@H](O)[C@H](C)O2)[C@H](C)[C@@H](O[C@@H]2O[C@H](C)C[C@H](N(C)C)[C@H]2O)[C@](C)(O)C[C@@H](C)CN(C)[C@H](C)[C@@H](O)[C@]1(C)O`
1.62

What value of IC50 has been reported for the following compound? `O[C@@H](c1cc(C(F)(F)F)nc2c(C(F)(F)F)cccc12)[C@H]1CCCCN1`
0.0162

Data credit: ChEMBL document CHEMBL1143813
